# Test system: HT-29
# test-name: Anticancer activity against human HT-29 cells
# Format: functional, cell-based
endpoint-name: pIC50
Friendly reminder that pIC50 comes from taking -log10 of the concentration in mol/L.

[ask] Recorded pIC50 of COc1cccc2c1C=C(c1ncc(-c3ccc(OCc4ccccc4)cc3)[nH]1)CO2 , please.
[reply] 6.43

====

# test-name: Cytotoxicity against human MCF-10A cells
# Assay type: toxicity, cell-based
endpoint-name: pIC50
Friendly reminder that pIC50 comes from taking -log10 of the concentration in mol/L.

[ask] Recorded pIC50 of COc1cc(C(=O)c2[nH]c(N)nc2-c2cccs2)cc(OC)c1OC , please.
[reply] 5.72

====

# Test system: MCF7
# test-name: Anticancer activity against human MCF7 cells at 1.9 uM relative to control
# Format: functional
Would you kindly list inhibition at 1.9 µM for each of these compounds?
Give a bare numeral; the unit % is implied.

[ask] Recorded inhibition at 1.9 µM of Cc1ccc(-c2nc(-c3ccccc3)c(-c3ccccc3)n2Cc2ccc(F)cc2)cc1 , please.
[reply] 87

[ask] Recorded inhibition at 1.9 µM of Fc1ccc(Cn2c(-c3ccc(Cl)cc3)nc(-c3ccccc3)c2-c2ccccc2)cc1 , please.
[reply] 65

[ask] Recorded inhibition at 1.9 µM of COc1ccc(-c2nc(-c3ccccc3)c(-c3ccccc3)n2Cc2ccc(F)cc2)cc1 , please.
[reply] 88

[ask] Recorded inhibition at 1.9 µM of Fc1ccc(Cn2c(-c3ccc(Br)cc3)nc(-c3ccccc3)c2-c2ccccc2)cc1 , please.
[reply] 75

====

# Tested on: HT-29
# test-name: Antiproliferative activity against human HT-29 cells assessed as reduction in cell viability incubated for 72 hrs by MTT assay
# Type: functional, cell-based
# condition-summary: HT-29, 72 h
endpoint-name: IC50 (nM)
Give a bare numeral; the unit nM is implied.

[ask] Recorded IC50 of COc1ccc(/C=C\c2cc(OC)c(OC)c(OC)c2)cc1O , please.
[reply] 180

[ask] Recorded IC50 of CCOc1ccc(-c2nccn2-c2cc(OC)c(OC)c(OC)c2)cc1Cl , please.
[reply] 0.4

====

# Test system: HeLa
# test-name: Cytotoxicity against human HeLa cells assessed as reduction in cell growth incubated for 24 hrs by MTT assay
# Format: functional, cell-based
Would you kindly list pIC50 for each of these molecules?
Friendly reminder that pIC50 comes from taking -log10 of the concentration in mol/L.

[ask] Recorded pIC50 of O=C(O)c1ccc(C(=O)NCn2cc(CSc3nc(-c4ccccc4)c(-c4ccccc4)n3-c3ccccc3)nn2)cc1 , please.
[reply] 5.16

[ask] Recorded pIC50 of COc1cccc2c1C(=O)c1c(O)c3c(c(O)c1C2=O)C[C@@](O)(C(=O)CO)C[C@@H]3O[C@H]1C[C@H](N)[C@H](O)[C@H](C)O1 , please.
[reply] 5.90

====

# test-name: Antiproliferative activity against MRC5 cells assessed as reduction in cell growth by MTT assay
# Format: toxicity, cell-based
# condition-summary: human
Would you kindly list pIC50 for each of these molecules?
Friendly reminder that pIC50 comes from taking -log10 of the concentration in mol/L.

[ask] Recorded pIC50 of CN(C)CCCOc1ccc(-c2nc(-c3ccc(Br)o3)[nH]c2-c2ccc(OCCCN(C)C)cc2)cc1 , please.
[reply] 5.07

[ask] Recorded pIC50 of CN(C)CCCOc1ccc(-c2nc(-c3ccc([N+](=O)[O-])o3)[nH]c2-c2ccc(OCCCN(C)C)cc2)cc1 , please.
[reply] 5.15
